# Test system: 786-O
# assay_method_text: Euclidean distance of Cell Painting phenotypic profile (signed KS, 77 features) to DMSO centroid (dimensionless distance); 5 or 10 uM (library dependent); higher = stronger phenotypic change vs DMSO (phenoactivity)
# assay_conditions: 48 h
Counter-ions that a name gives are not always drawn.
readout: Euclidean distance
// keep it numeric: no unit symbol after the value

* C=CC[C@@H]1/C=C(\C)C[C@H](C)C[C@H](OC)[C@H]2O[C@@](O)(C(=O)C(=O)N3CCCC[C@H]3C(=O)O[C@H](/C(C)=C/[C@@H]3CC[C@@H](O)[C@H](OC)C3)[C@H](C)[C@@H](O)CC1=O)[C@H](C)C[C@@H]2OC [Tacrolimus (FK506)] | 0.986
* CN[C@@H](C)C(=O)N[C@H](C(=O)N1CCC[C@H]1c1nc(C(=O)c2ccc(F)cc2)cs1)C1CCCCC1 | 1.14
* CCn1cc(C(=O)O)c(=O)c2cc(F)c(N3CCN(C)CC3)cc21 [Pefloxacin Mesylate Dihydrate] | 1.52
* O=P(O)(O)OC(Cn1cncn1)(Cn1cncn1)c1ccc(F)cc1F [Fosfluconazole] | 1.39

# ---- query molecule ----
Form field Euclidean distance, entry NC[C@@H]1O[C@H](O[C@H]2[C@@H](O)[C@H](O[C@@H]3[C@@H](O)[C@H](N)C[C@H](N)[C@H]3O[C@H]3O[C@H](CO)[C@@H](O)[C@H](O)[C@H]3N)O[C@@H]2CO)[C@H](N)[C@@H](O)[C@@H]1O [Paromomycin Sulfate] : 1.05

###

# Test system: FB
# assay_method_text: Euclidean distance of Cell Painting phenotypic profile (signed KS, 77 features) to DMSO centroid (dimensionless distance); 5 or 10 uM (library dependent); higher = stronger phenotypic change vs DMSO (phenoactivity)
# assay_conditions: 48 h
Structures can show the parent of a compound that is named as a salt.
# cutoff 0.9 applies to Euclidean distance; >= gives yes (1), < gives no (0)

- Cc1cc(Nc2nc(N[C@@H](C)c3ccc(F)cc3)c(C#N)cc2F)n[nH]1: yes (1)
- CC[C@H](c1ccc(O)cc1)[C@@H](CC)c1ccc(O)cc1 [Hexestrol]: yes (1)
- Nc1ccc(C(=O)O)c(O)c1 [4-Aminosalicylic acid]: no (0)
- CC1COc2c(N3CCN(C)CC3)c(F)cc3c(=O)c(C(=O)O)cn1c23 (stereo not drawn) [Ofloxacin]: no (0)
- S=C(NCc1ccc2c(c1)OCO2)N1CCN(c2ncnc3c2oc2ccccc23)CC1 [Amuvatinib (MP-470)]: yes (1)
- O=C1c2c(O)cccc2Cc2cccc(O)c21 [Dithranol]: yes (1)
- NC(=O)NC1NC(=O)NC1=O (stereo not drawn) [Allantoin]: no (0)
- OC[C@H]1O[C@@H](OCCc2ccc(O)cc2)[C@H](O)[C@@H](O)[C@@H]1O [Salidroside]: no (0)

Request: Please indicate if the recorded Euclidean distance for O=c1ccc2ccccc2o1 [Coumarin] meets or exceeds 0.9.
Response: yes (1)

Request: Please indicate if the recorded Euclidean distance for O=C(O[C@@H]1C[C@@H]2C[C@H]3C[C@H](C1)N2CC3=O)c1c[nH]c2ccccc12 [Dolasetron Mesylate] meets or exceeds 0.9.
Response: yes (1)

Request: Please indicate if the recorded Euclidean distance for Cc1ccsc1C(=CCCN1CCC[C@@H](C(=O)O)C1)c1sccc1C [Tiagabine] meets or exceeds 0.9.
Response: no (0)

Request: Please indicate if the recorded Euclidean distance for CN(C)C/C=C/C(=O)Nc1cc2c(Nc3ccc(F)c(Cl)c3)ncnc2cc1O[C@H]1CCOC1 [Afatinib (BIBW2992) Dimaleate] meets or exceeds 0.9.
Response: yes (1)

Request: Please indicate if the recorded Euclidean distance for CNC(=O)c1cc(Oc2ccc(NC(=O)Nc3ccc(Cl)c(C(F)(F)F)c3)c(F)c2)ccn1 [Regorafenib Monohydrate] meets or exceeds 0.9.
Response: yes (1)

Request: Please indicate if the recorded Euclidean distance for CCCC(=O)Nc1ncnc2c1ncn2[C@@H]1O[C@@H]2COP(=O)(O)O[C@H]2[C@H]1OC(=O)CCC [Dibutyryl-cAMP (Bucladesine)] meets or exceeds 0.9.
Response: no (0)

Request: Please indicate if the recorded Euclidean distance for CC(=O)NC[C@H]1CN(c2ccc(N3CCOCC3)c(F)c2)C(=O)O1 [Linezolid] meets or exceeds 0.9.
Response: no (0)

Request: Please indicate if the recorded Euclidean distance for COCCc1ccc(OCC(O)CNC(C)C)cc1 (stereo not drawn) [Metoprolol Tartrate] meets or exceeds 0.9.
Response: no (0)

Request: Please indicate if the recorded Euclidean distance for CCCCC(O)c1ccccc1 (stereo not drawn) [Fenipentol] meets or exceeds 0.9.
Response: no (0)

Request: Please indicate if the recorded Euclidean distance for Cc1cc(C)nc(NS(=O)(=O)c2ccc(N)cc2)n1 [Sulfamethazine] meets or exceeds 0.9.
Response: no (0)

Request: Please indicate if the recorded Euclidean distance for NC(=O)c1cnccn1 [Pyrazinamide] meets or exceeds 0.9.
Response: yes (1)

Request: Please indicate if the recorded Euclidean distance for CC(=O)[C@]1(O)Cc2c(O)c3c(c(O)c2[C@@H](O[C@H]2C[C@H](N)[C@H](O)[C@H](C)O2)C1)C(=O)c1ccccc1C3=O [Idarubicin HCl] meets or exceeds 0.9.
Response: yes (1)

Request: Please indicate if the recorded Euclidean distance for O=C1C[C@@H](c2ccc(O[C@@H]3O[C@H](CO)[C@@H](O)[C@H](O)[C@H]3O)cc2)Oc2cc(O)ccc21 [Liquiritin] meets or exceeds 0.9.
Response: yes (1)

Request: Please indicate if the recorded Euclidean distance for COc1ccc(CN2CCN(C(c3ccc(F)cc3)c3ccc(F)cc3)CC2)c(OC)c1OC [Lomerizine 2HCl] meets or exceeds 0.9.
Response: yes (1)

Request: Please indicate if the recorded Euclidean distance for O=C(O)C1=CO[C@@H](O[C@@H]2O[C@H](CO)[C@@H](O)[C@H](O)[C@H]2O)[C@@H]2C(CO)=CC[C@H]12 [Geniposidic acid] meets or exceeds 0.9.
Response: no (0)

Request: Please indicate if the recorded Euclidean distance for Oc1c(Cl)cc(Cl)cc1Sc1cc(Cl)cc(Cl)c1O [Bithionol] meets or exceeds 0.9.
Response: yes (1)

Request: Please indicate if the recorded Euclidean distance for O=[N+]([O-])c1cncn1CCN1CCOCC1 [Nimorazole] meets or exceeds 0.9.
Response: no (0)

Request: Please indicate if the recorded Euclidean distance for COc1cc(NS(C)(=O)=O)ccc1Nc1c2ccccc2nc2ccccc12 [Amsacrine hydrochloride] meets or exceeds 0.9.
Response: yes (1)

Request: Please indicate if the recorded Euclidean distance for CCC1(C)CC(=O)NC1=O (stereo not drawn) [Ethosuximide] meets or exceeds 0.9.
Response: yes (1)

Request: Please indicate if the recorded Euclidean distance for COc1ccc(CN(CCN(C)C)c2ncccn2)cc1 [Thonzylamine] meets or exceeds 0.9.
Response: yes (1)

###

Attribute: Euclidean distance
# Test system: 786-O
# assay_method_text: Euclidean distance of Cell Painting phenotypic profile (signed KS, 77 features) to DMSO centroid (dimensionless distance); 5 or 10 uM (library dependent); higher = stronger phenotypic change vs DMSO (phenoactivity)
# assay_conditions: 48 h
// keep it numeric: no unit symbol after the value

In the examples that follow, each entry is paired with its recorded Euclidean distance.
- O=C(N/N=C/c1ccc(O)c(O)c1)c1cc2ccccc2cc1O [Dynasore]: 0.917
- CC(C)C[C@H](NC(=O)[C@@H](COC(C)(C)C)NC(=O)[C@H](Cc1ccc(O)cc1)NC(=O)[C@H](CO)NC(=O)[C@H](Cc1c[nH]c2ccccc12)NC(=O)[C@H](Cc1cnc[nH]1)NC(=O)[C@@H]1CCC(=O)N1)C(=O)N[C@@H](CCCNC(=N)N)C(=O)N1CCC[C@H]1C(=O)NNC(N)=O [Goserelin Acetate]: 1.49

# ---- query compound ----
Recorded Euclidean distance for CC1=C(/C=C/C(C)=C/C=C/C(C)=C/CO)C(C)(C)CCC1 [Vitamin A] on 786-O was 0.784

###

# System: HEPG2
# assay_method_text: Euclidean distance of Cell Painting phenotypic profile (signed KS, 77 features) to DMSO centroid (dimensionless distance); 5 or 10 uM (library dependent); higher = stronger phenotypic change vs DMSO (phenoactivity)
# assay_conditions: 48 h
Where a name gives a salt, the structure may show the parent alone.
# cutoff 2 applies to Euclidean distance; >= gives TRUE, < gives FALSE

• C[C@H]1CN(C[C@H](Cc2ccccc2)C(=O)NCC(=O)O)CC[C@@]1(C)c1cccc(O)c1 [Alvimopan dihydrate] = FALSE

Request: Please indicate if the recorded Euclidean distance for N#CCC1(n2cc(-c3ncnc4[nH]ccc34)cn2)CN(C2CCN(C(=O)c3ccnc(C(F)(F)F)c3F)CC2)C1 meets or exceeds 2.
Response: FALSE

Request: Please indicate if the recorded Euclidean distance for COc1ccc(C2C(=O)c3ccccc3C2=O)cc1 [Anisindione] meets or exceeds 2.
Response: FALSE

Request: Please indicate if the recorded Euclidean distance for O=C(c1cncc(Br)c1)N1CCC(N2CCCC2)CC1 meets or exceeds 2.
Response: FALSE

Request: Please indicate if the recorded Euclidean distance for CC(=O)[C@]1(O)Cc2c(O)c3c(c(O)c2[C@@H](O[C@H]2C[C@H](N)[C@H](O)[C@H](C)O2)C1)C(=O)c1ccccc1C3=O [Idarubicin HCl] meets or exceeds 2.
Response: TRUE

Request: Please indicate if the recorded Euclidean distance for O=C1c2c(O)ccc(O)c2C(=O)c2c(NCCNCCO)ccc(NCCNCCO)c21 [Mitoxantrone HCl] meets or exceeds 2.
Response: TRUE

Request: Please indicate if the recorded Euclidean distance for CC(C)(O)c1cc(Nc2cc(Oc3cn(C4CC4)nc3C3CCOCC3)ccn2)ccn1 meets or exceeds 2.
Response: FALSE

Request: Please indicate if the recorded Euclidean distance for COC(=O)Nc1nc2cc(C(=O)c3ccc(F)cc3)ccc2[nH]1 [Flubendazole] meets or exceeds 2.
Response: TRUE
